Data origin, for the record: ChEMBL document CHEMBL3885881

organism: Rattus norvegicus; test: DrugMatrix - Regimen: Daily Repeat; assay type: toxicity, organism-based, Sprague-Dawley; design: regimen Daily Repeat, gender Male, age 6-8 weeks; details: in vivo, iv, 0 mg/kg, 72 h, tissue Blood, dose level Control, time 3 day, vehicle 100 % SALINE
I'd appreciate it if you could supply HEMOGLOBIN values for the items below.
Numbers only, in G/DL.

A selection of reference data follows.
Smiles Record | Quantitative Readout
CC1(C)S[C@@H]2[C@H](NC(=O)[C@H](NC(=O)N3CCNC3=O)c3ccccc3)C(=O)N2[C@H]1C(=O)O | 13.6
NCC[C@H](O)C(=O)N[C@@H]1C[C@H](N)[C@@H](O[C@H]2O[C@H](CN)[C@@H](O)[C@H](O)[C@H]2O)[C@H](O)[C@H]1O[C@H]1O[C@H](CO)[C@@H](O)[C@H](N)[C@H]1O | 12.88
CC[C@@]1(O)C(=O)OCc2c1cc1n(c2=O)Cc2cc3ccccc3nc2-1 | 13.8

// HEMOGLOBIN value for `CN(N=O)C(=O)N[C@@H](C=O)[C@@H](O)[C@H](O)[C@H](O)CO` : 12.65

* * *

I'd appreciate it if you could supply PHOSPHORUS values for the items below.
species: Rattus norvegicus; experiment: DrugMatrix - Regimen: Daily Repeat; format: toxicity, organism-based, Sprague-Dawley; parameters: regimen Daily Repeat, gender Male, age 6-8 weeks; conditions: in vivo, po, 10 mg/kg, 120 h, tissue Plasma, route oral GAVAGE, dose level Low, time 5 day, vehicle .5 % CMC
Give bare numbers, in mg/dL.

Molecule | PHOSPHORUS (mg/dL)
NS(=O)(=O)c1cc2c(cc1Cl)NCNS2(=O)=O [HYDROCHLOROTHIAZIDE] | 11.27
COc1c(C)c2c(c(O)c1C/C=C(\C)CCC(=O)OCCN1CCOCC1)C(=O)OC2 [MYCOPHENOLATE MOFETIL] | 11.87
O=C1CN=C(c2ccccc2)c2cc([N+](=O)[O-])ccc2N1 | 13.13

Consider now this further molecule.
// PHOSPHORUS value for CC(=O)O[C@]1(C(C)=O)CC[C@H]2[C@@H]3C=C(Cl)C4=CC(=O)CC[C@]4(C)[C@H]3CC[C@@]21C [CHLORMADINONE ACETATE] : 12.67

* * *

organism: Rattus norvegicus; assay: DrugMatrix - Regimen: Daily Repeat; type: toxicity, organism-based, Sprague-Dawley; set-up: regimen Daily Repeat, gender Male, age 6-8 weeks; settings: in vivo, iv, 0 mg/kg, 72 h, tissue Plasma, dose level Control, time 3 day, vehicle 100 % SALINE
I'd appreciate it if you could supply GLUCOSE values for the items below.
Numbers only, in mg/dL.

Smiles Record | Measure Unit | GLUCOSE
CC1(C)S[C@@H]2[C@H](NC(=O)[C@H](NC(=O)N3CCNC3=O)c3ccccc3)C(=O)N2[C@H]1C(=O)O | mg/dL | 163.83

For every listed record, write down its GLUCOSE.
1. NCC[C@H](O)C(=O)N[C@@H]1C[C@H](N)[C@@H](O[C@H]2O[C@H](CN)[C@@H](O)[C@H](O)[C@H]2O)[C@H](O)[C@H]1O[C@H]1O[C@H](CO)[C@@H](O)[C@H](N)[C@H]1O
2. CN(N=O)C(=O)N[C@@H](C=O)[C@@H](O)[C@H](O)[C@H](O)CO

### Response
1. 149.17
2. 149.33

// GLUCOSE value for `CC[C@@]1(O)C(=O)OCc2c1cc1n(c2=O)Cc2cc3ccccc3nc2-1` : 157
